test: solvent given as SMILES; conditions: in CCCO
Listing: emission maximum of selected molecules

structureNotation	emission maximum, nm
CCN(CC)c1ccc(/C=C/C(=O)c2c(O)cc(C)oc2=O)cc1	562
CN(C)c1cccc2c1ccc1c(=O)oc(-c3ccc(C(F)(F)F)cc3)cc12	591
Nc1ccc2c(c1)C(=O)O/C2=C\c1ccc(Cl)cc1	484.5
CN(C)c1ccc(/C=C/c2ccc(-c3nnc(-c4ccc(-c5cc6ccccc6s5)cc4)o3)cc2)cc1	399

###

Each item that follows carries a reported emission maximum.
experiment: solvent given as SMILES; details: in ClC(Cl)Cl
readoutLabel: emission maximum (nm)

structureNotation	readoutLabel	unitSymbol	numericReadout
CCCCCCN1C(=O)c2cccc3cc(/N=C\c4c[nH]c5c4ccc4ccccc45)cc(c23)C1=O	emission maximum	nm	501
c1ccc(-c2nc(-c3ccccn3)[se]c2N(c2ccccc2)c2ccccc2)cc1	emission maximum	nm	498
Fc1cc(-c2nc(-c3ccccc3)nc(-c3ccccc3)n2)ccc1-n1c2ccccc2c2c3c(ccc21)C1(c2ccccc2-c2ccccc21)c1ccccc1-3	emission maximum	nm	500.23
CCCCCCN1C(=O)c2cccc3c(-c4ccc(-c5ccc6c7c(cccc57)C(=O)N(CCCCCC)C6=O)s4)ccc(c23)C1=O	emission maximum	nm	495
CC(C)c1cccc(C(C)C)c1-n1c(=O)c2cc3nc(-c4ccccc4)c4cc5c(=O)n(-c6c(C(C)C)cccc6C(C)C)c(=O)c6cc7c(-c8ccccc8)nc8cc(c1=O)c2c1c3c4c(c56)c7c81	emission maximum	nm	488

###

experiment: solvent given as SMILES; conditions: in ClCCl

structureNotation	unitSymbol	emission maximum
C(=C\c1ncc(-c2ccc(OCc3ccccc3)c(OCc3ccccc3)c2)o1)/c1cccc(N2CCN(c3ccccc3)CC2)c1	nm	500
CCN(CC)c1ccc2cc(-c3nc4cc(C(=O)Nc5cccc(C)c5)ccc4o3)c(=O)oc2c1	nm	495
C(=C\c1cc(-c2ccc3ccccc3c2)c(/C=C/c2ccc(N(c3ccccc3)c3ccccc3)cc2)cc1-c1ccc2ccccc2c1)/c1ccc(N(c2ccccc2)c2ccccc2)cc1	nm	489
CC1(C)c2ccccc2N(c2ccc3c(c2)C(C)(C)c2cc(N4c5ccccc5C(C)(C)c5ccccc54)ccc2S3(=O)=O)c2ccccc21	nm	504
Cc1cccc2nc(-c3ccc(-c4cc(=O)cc(-c5ccccc5)o4)cc3)c(NC3CCCCC3)n12	nm	506
Cc1cc(O)c(C(=O)/C=C/c2cccc(O)c2)c(=O)o1	nm	491

###

assay: solvent given as SMILES; conditions: in O=P(c1ccccc1)(c1ccccc1)c1ccccc1Oc1ccccc1P(=O)(c1ccccc1)c1ccccc1
Recorded emission maximum, one value per entry.

structureNotation	emission maximum (nm)
CC1(C)c2ccccc2N(c2ccc(-c3nnc(-c4ccc(-n5c6ccccc6c6ccccc65)cc4)o3)cc2)c2ccccc21	479
CC1(C)c2ccccc2N(c2ccccc2)c2ccc(S(=O)(=O)c3ccc4c(c3)C(C)(C)c3ccccc3N4c3ccccc3)cc21	381
CC1(C)c2ccccc2N(c2ccc(-c3nc4cccc5c4n3-c3ccccc3C5(C)C)cc2)c2ccccc21	449
N#Cc1c(-n2c3ccccc3c3ccccc32)cccc1-n1c2ccccc2c2ccccc21	415
CC(C)(C)c1ccc2c(c1)c1cc(C(C)(C)C)ccc1n2-c1ccccc1-c1nc(-c2ccccc2P(=O)(c2ccccc2)c2ccccc2)nc(-c2ccccc2P(=O)(c2ccccc2)c2ccccc2)n1	504

###

Catalogue of molecules with associated emission maximum
assay: solvent given as SMILES; conditions: in CS(C)=O

molecule	emission maximum
Cc1c(OCC(=O)O)cc2c3c([nH]c2c1C)C(=O)CCC3	427.12 nm
N#CC1=C(N)n2c(=O)c3ccccc3c(=O)n2C1c1ccccc1 (stereo not drawn)	438 nm
c1ccc2c(c1)CCc1c-2cnc2c1-c1ccccc1CC2	360 nm

###

test: solvent given as SMILES; settings: in CCOC(C)=O

compound	emission maximum / nm
Cc1ccc(NC(=O)c2sc(Br)nc2C)cc1	404.5
Cn1c(=O)c(/N=N/c2cc(S(=O)(=O)O)ccc2S(=O)(=O)O)c(O)c2ccccc21	493
Cc1cc(C(F)(F)F)nc2c1ccc1nc(-c3ccc(Cl)cc3)cn12	457
NS(=O)(=O)c1ccc(N2N=C(c3ccc(O)cc3)CC2c2ccc([N+](=O)[O-])cc2)cc1 (stereo not drawn)	417
CCOC(=O)/C(C#N)=C\c1ccc2c(c1)c1ccccc1n2-c1ccc(OC)cc1	479
CCC1=C(C)C2=Cc3c(I)c(I)c(I)n3[B-](F)(F)[N+]2=C1C	553.5
CC(C)(C)c1cc2ccc3cc(C(C)(C)C)cc4c3c2c(c1)c(=O)n1c4nc2c3cc(C(C)(C)C)cc4ccc5cc(C(C)(C)C)cc(c5c43)c21	524
[C-]#[N+]c1ccc(-c2ccc(NC)cc2)cc1	403
CC1=[N+]2C(=Cc3ccc(C)n3[B-]2(F)F)C=C1c1cc2n(c1)[B-](F)(F)[N+]1=CC=CC1=C2c1c(C)cc(C)cc1C	683
CCC1=C(C)C2=C(C)c3cccn3[B-](F)(F)[N+]2=C1C	512.5
CN(C)c1ccc(/C=C2\CC/C(=C\c3ccc(N(C)C)cc3)C2=O)cc1	528
CCn1c2ccccc2c2cc(-c3cc(-c4ccc5c(c4)c4ccccc4n5CC)nc(-c4ccc(OC)cc4)n3)ccc21	384
COC(=O)c1ccc(C2=C3C=CC(C)=[N+]3[B-](F)(F)n3c(C)ccc32)cc1	533
CCN(CC)c1ccc2cc(-c3ccc(S(C)(=O)=O)cc3)oc(=O)c2c1	465
CCc1c(C)c2n(c1C)[B-](F)(F)[N+]1=C(NCc3ccc(OC)cc3)C=CC1=C2C	549
CN(c1ccccc1)c1ccc(/C=C2\C(=O)c3ccccc3S2(=O)=O)cc1	533
N#C/C(=C\c1cc(/C=C(\C#N)c2ccc(C(F)(F)F)cc2)c(-c2ccc(N(c3ccccc3)c3ccccc3)cc2)cc1-c1ccc(N(c2ccccc2)c2ccccc2)cc1)c1ccc(C(F)(F)F)cc1	581
CC1=[N+]2C(=C(Oc3ccccc3)c3ccc(C)n3[B-]2(F)F)C=C1c1cc2n(c1)[B-](F)(F)[N+]1=CC=CC1=C2c1c(C)cc(C)cc1C	665
CCC1=C(C)C2=C(C)c3cc(I)cn3[B-](F)(F)[N+]2=C1C	531.5
CCn1c(-c2ccc(-c3ccc4ccc5cccc6ccc3c4c56)cc2)c(-c2ccc3ccccc3c2)c(-c2ccc3ccccc3c2)c1-c1ccc(-c2ccc3ccc4cccc5ccc2c3c45)cc1	460
N#Cc1ccc(C#Cc2ccc3ccc4ccc(C#Cc5ccc(C#N)cc5)c5ccc2c3c45)cc1	442.4
N#Cc1c(-c2ccccc2)cc(-c2ccccc2)[nH]c1=S	502
Cc1cc(-c2ccccc2)nc2c1ccc1nc(-c3ccccc3)cn12	454
CCn1c2ccccc2c2cc(C#Cc3cc(C#Cc4ccc5c(c4)c4ccccc4n5CC)nc(SC)n3)ccc21	446
N#C/C=C/c1ccc2ccc3cccc4ccc1c2c34	423
CN(C)c1cccc2c1ccc1c(=O)oc(-c3ccc(C(F)(F)F)cc3)cc12	578
COc1ccc2c(CC(=O)NN)coc2c1	368
Nc1ccc2c(c1)C(=O)O/C2=C\c1ccc(Cl)cc1	461.68
O=C(c1ccc(N(c2ccccc2)c2ccccc2)cc1)[C@H]1[C@H](c2ccc(F)cc2)C[C@](O)(c2ccccn2)C[C@]1(O)c1ccccn1	502
Nc1cc(N)cc(-c2nc3ccccc3s2)c1	468
c1cc2ccc3ccc(-n4c5ccccc5c5ccccc54)c4ccc(c1)c2c34	398
COc1ccc(-c2nc(N)nc(C#N)c2C#N)cc1OC	442
N#Cc1cc2ccccc2oc1=O	410

###

test: solvent given as SMILES; conditions: in ClCCl

structureNotation	emission maximum / nm
CN(C)c1ccc(/C=C/c2cnc(-c3ccncc3)o2)cc1	550
O=c1c2cccc3cccc(c32)c2nc3c4ccccc4c4ccccc4c3n12	589
Cc1cc2c(cc1N1c3ccccc3C(C)(C)c3ccccc31)C(C)(C)c1cc(N3c4ccccc4C(C)(C)c4ccccc43)c(C)cc1S2(=O)=O	495
CCCCCCCCOc1cc(/C=C/c2ccncc2)c(OCCCCCCCC)cc1/C=C/c1ccncc1	470

###

Reported values of emission maximum for individual entries
experiment: solvent given as SMILES; details: in CC#N

compound	unitSymbol	emission maximum
F[B-]1(F)OC(c2ccccc2)=CC(c2ccccc2)=[O+]1	nm	398
O=C([O-])c1ccccc1C1=c2cc3c4c(c2Oc2c1cc1c5c2CCCN5CCC1)CCC[N+]=4CCC3	nm	603
CCCCCCc1ccc2c3c(ccc2c1)O[B-](c1ccccc1)(c1ccccc1)[N+](c1ccc([N+]2=Cc4c(ccc5cc(CCCCCC)ccc45)O[B-]2(c2ccccc2)c2ccccc2)cc1)=C3	nm	561
Cc1ccc(S(=O)(=O)Nc2c(/C=C/c3ccccc3)sc(-c3ccc(N(C)C)cc3)c2-c2ccsc2)cc1	nm	627
COC(=O)C(NC(=O)OC(C)(C)C)c1ccc2oc(-c3cccc(Oc4ccccc4)c3)nc2c1 (centres undefined)	nm	360
Nc1ccc2c(c1)C(=O)O/C2=C\c1ccc(Cl)cc1	nm	452.9
CN(C)c1ccc(-c2ccc3n2[B-](F)(F)[N+]2=C(c4ccccc4)C=CC2=C3C(F)(F)F)cc1	nm	772
COc1cc2cc(C#Cc3ccc(/C=C(\C#N)C(=O)O)cc3)c(=O)oc2cc1OC	nm	464
N#Cc1ccc(/C=C/C=C/C2=NC3C(=O)NC(N)=NC3N2[C@H]2C[C@H](O)[C@@H](CO)O2)cc1 (some centres undefined)	nm	526
C(=C\c1cccnc1)/c1ccc(Nc2ccccc2)cc1	nm	456
[C-]#[N+]c1ccc(-c2ccc(NC)cc2)cc1	nm	421
COc1ccc(N2C(=O)c3ccccc3NC2C(C)(C)C)cc1 (centres undefined)	nm	413
CC(=O)Nc1cccc2c1C#Cc1c(cccc1C(=O)N(C)C)OCCCO2	nm	394
O=C1c2ccccc2-c2cc3ccccc3c(=O)n21	nm	443

Measured values drawn from the Deep4Chem optical property database for this set.
